- System: M. marinum in A. castellanii
- Format: cell-based, Mycobacterium marinum
- test_parameters: 10 µM
observed_property: A. castellanii / M. marinum normalised growth, control=1.00, mean
Lab note: record the figure alone, no unit after it.

Before answering, review these 2 worked examples.
compound	numeric_value
Cc1ccc2nc(C)c(C(=O)NCC(C)C)n2c1 [GSK1829816A]	1.01
Cc1nnc(NCc2cccc(Cl)c2)c2ccccc12 [GSK1302651A]	1.01

--- query ---
Hello, please tell me recorded A. castellanii / M. marinum normalised growth, control=1.00, mean for this one: O=C(c1cc2ccccc2o1)N1CCN(Cc2ccc3c(c2)OCO3)CC1 [GSK861337A]
0.70
